- Test system: EKVX NSCLC
- experimental details: NCI tumour cell line growth inhibition, 48 h
Could you please report measured TGI for the items listed next?

CCCCC[C@H]1C/C=C2/C(=O)C(Cl)=C[C@@H]2C/C=C\CCCC(=O)O[C@@H](CCCCC)C/C=C2/C(=O)C(Cl)=C[C@@H]2C/C=C\CCCC(=O)O1 : 1.76 µM

Hello, I would appreciate it if you could give TGI for each entry below.
1. CC1OC(c2ccccc2)=CC(OCc2ccccc2)[C@H]1OCc1ccccc1 (stereo partly specified)
2. COC(=O)c1cc(-c2c[nH]cc2C(=O)OCc2ccccc2)cn1S(=O)(=O)c1ccc(C)cc1
3. COc1cnc2c(c1)C(=O)c1c-2n(CCCN2CCCC2)c(=O)c2cc(Cl)ccc12
4. O=Cc1cc2c(o1)C(=O)c1ccccc1C2=O
5. CCc1c[nH]c2ncnc(N3CC[C@@](N)(CNC(=O)c4ccc(F)cc4F)C3)c12

1. > 10 µM
2. > 100 µM
3. 11.3 µM
4. 7.46 µM
5. > 100 µM

Hello, I would appreciate it if you could give TGI for each entry below.
1. CO[C@@H](c1ccccc1)[C@H](O)[C@](O)(c1ccccc1)P(=O)(OC)OC
2. N#Cc1ccccc1NC(=O)c1ccccc1
3. O=C1CCC2(c3ccccc3)Nc3cc(Cl)ccc3N12 (stereo unspecified)
4. CN(C)Cc1cc(N=Nc2ccccc2Cl)cc(CN(C)C)c1O
5. CC(C)OC(=O)c1ccc2[nH]c(O)c(C(=Nc3ccc(N(C)C(=O)CN4CCN(C)CC4)cc3)c3ccccc3)c2c1
6. CN(C)CCNC(=O)c1ccc(Cl)c2c(Nc3ccc(S(N)(=O)=O)cc3)c3ccccc3nc12
7. Clc1ccc(CN2COc3c(cc(Cl)c4cccnc34)C2)cc1
8. Cn1c(COC(=O)NC2CCCCC2)c(COC(=O)NC2CCCCC2)c2ccc3cc(Cl)c(Cl)cc3c21

["> 100 µM", "> 100 µM", "> 100 µM", "> 100 µM", "2.49 µM", "17.7 µM", "14.2 µM", "> 100 µM"]

Hello, I would appreciate it if you could give TGI for each entry below.
1. O=C(O)c1c[nH]cc1C(=O)O
2. O=[N+]([O-])c1ccc(N=NN2CCCC2)cc1

1: > 100 µM; 2: > 100 µM
